Test system: CD2F1 mice, L1210 leukemia ip, survival T/C
Assay: NCI In Vivo Anticancer Drug Screen. Data for tumor model L1210 Leukemia (intraperitoneal) in CD2F1 (CDF1) mice
Settings: endpoint: mean survival time; dose: 400.0 mg/kg/injection; schedule: Q04DX002 (ip); vehicle: saline with Tween-80; higher = longer survival
Inconclusive results and toxic doses are left out.
READOUT_NAME: T/C

O=C(/C=C/c1ccccc1)Nc1ccc(Cl)c(Cl)c1 = 95 % of control
O=[N+]([O-])c1ccc(C2Nc3cc(Cl)c(Cl)cc3S(=O)(=O)N2O)cc1 (configuration not stated) = 103 % of control
NC(=O)c1ccc([N+](=O)[O-])cc1Cl = 94 % of control
Cc1cc(C)nc(NC(=S)N/N=C/c2ccc(O)cn2)n1 = 91 % of control
CC(=O)Oc1c(Br)cc2cc(Br)ccc2c1Br = 98 % of control

Give the measured T/C for CCN(CC)C(=S)Nc1ccc(Cl)cc1 102 % of control

Supply reported T/C belonging to this compound: COc1ccc(NC(=O)Nc2cccc([N+](=O)[O-])c2OC)cc1 96 % of control

Provide only the value of recorded T/C for Cn1c(=O)[nH]c(=O)c2cc(Cl)ccc21 121 % of control

Name the recorded T/C of the compound listed here: CC(=Nc1ccccc1)C1=C(O)C(Cc2cccc(F)c2)NC1=O (configuration not stated) 103 % of control

Provide one value: measured T/C of O=S(=O)(Nc1ccc(Br)cc1)c1ccc(Cl)c(Cl)c1 88 % of control

Return the recorded T/C value; entry: CC(=O)[C@@]12O[C@@H]1C[C@H]1[C@@H]3CCC4=CC(=O)CC[C@]4(C)[C@H]3CC[C@@]12C 96 % of control

Tell me measured T/C for CC1=CCC(=O)O1 please. 102 % of control

* * *

System: CD2F1 mice, L1210 leukemia ip, survival T/C
Assay: NCI In Vivo Anticancer Drug Screen. Data for tumor model L1210 Leukemia (intraperitoneal) in CD2F1 (CDF1) mice
Conditions: endpoint: mean survival time; dose: 100.0 mg/kg/injection; schedule: Q04DX002 (ip); vehicle: saline with Tween-80; higher = longer survival
Inconclusive results and toxic doses are left out.
READOUT_NAME: T/C

# count of solved cases: 4
CCOP(=O)(CC(=O)O)c1ccccc1 (centres undefined) = 92 % of control
O=c1[nH]cc([N+](=O)[O-])c(=O)[nH]1 = 97 % of control
O=c1oc2ccccc2c2ccccc12 = 108 % of control
CCOC(=O)NCC1CCC(CO)CC1 (centres undefined) = 95 % of control

Return T/C for the following molecule: COC(=O)C1=C(O)C(C(=O)OC)C2/C(=[N+](/[O-])O)c3c(cc([N+](=O)[O-])cc3[N+](=O)[O-])C1C2[N+](=O)[O-] (centres undefined) 94 % of control

Output T/C of O=C1NCC(C2CC2)(C2CC2)O1 108 % of control

Return T/C (reported value) for this molecule: O=C(/C=C/c1ccc(OCc2ccccc2)c(OCc2ccccc2)c1)OCc1ccccc1 95 % of control

Answer with reported T/C of COC(=O)c1cocc1C(=O)OC 95 % of control

Check the records and state T/C for NC(=O)c1cc(NCCN2CCCCC2)c([N+](=O)[O-])cc1[N+](=O)[O-] 95 % of control

* * *

Recorded T/C by entry
System: CD2F1 mice, L1210 leukemia ip, survival T/C
Assay: NCI In Vivo Anticancer Drug Screen. Data for tumor model L1210 Leukemia (intraperitoneal) in CD2F1 (CDF1) mice
Conditions: endpoint: mean survival time; dose: 100.0 mg/kg/injection; schedule: Q01DX009 (ip); vehicle: other; higher = longer survival
Inconclusive results and toxic doses are left out.

Report T/C for CN(Cc1ccccc1)N=Nc1ccc(C(=O)O)cc1 101 % of control

Output T/C of CCC(CC)C(O)CC(O)CC(C)C (stereo not given) 97 % of control

* * *

Test system: CD2F1 mice, L1210 leukemia ip, survival T/C
Experiment: NCI In Vivo Anticancer Drug Screen. Data for tumor model L1210 Leukemia (intraperitoneal) in CD2F1 (CDF1) mice
Details: endpoint: mean survival time; dose: 200.0 mg/kg/injection; schedule: Q01DX001 (ip); vehicle: saline; higher = longer survival
Inconclusive results and toxic doses are left out.
READOUT_NAME: T/C

These recorded examples may help you get a feel for the data.
CC[C+](C)[B-][N+](C)(C)C = 98 % of control
Cc1[nH]c(=S)[nH]c(=O)c1Cc1c(O)ccc2ccccc12 = 100 % of control
CSc1nc(N)c2ncn(C3C=CC(O)CO3)c2n1 (stereo unspecified) = 100 % of control
O=C(O)CCC(=O)CCC(=O)c1ccc2ccccc2c1 = 98 % of control
Cc1ccc2nc(O)cc(=O)n2c1 = 97 % of control

State its T/C: c1ccc(OCCSc2ccccc2)cc1 104 % of control

Given CC1(CC(=O)O)NC(=O)NC1=O (stereo unspecified) , respond with its T/C. 97 % of control

Give reported T/C value for CCCN(CCC)S(=O)(=O)c1ccc(NC(=O)OCc2ccccc2)cc1 103 % of control

Determine from records and report T/C for CC(C)CC(C)COC(=O)c1c(Cl)c(Cl)c(Cl)c(Cl)c1C(=O)O (stereo unspecified) 90 % of control

Check the records and state T/C for C=C[Si](C=C)(C=C)C=C 104 % of control

* * *

Tested on: CD2F1 mice, L1210 leukemia ip, survival T/C
Experiment: NCI In Vivo Anticancer Drug Screen. Data for tumor model L1210 Leukemia (intraperitoneal) in CD2F1 (CDF1) mice
Settings: endpoint: mean survival time; dose: 40.0 mg/kg/injection; schedule: Q01DX001 (ip); vehicle: saline
Toxic doses and inconclusive results are not listed. Rule for the calls: active = survival T/C of 150% or more; inactive = T/C below 125% in these data.
Answer with one of the outcomes active, inactive

COC1OC(CSC#N)C2OC(C)(C)OC12 (stereo unspecified) = inactive
C=C(C)CSc1ccccc1 = inactive
CC1[N-]C(/C=N/O)NC(C)N1.CC1[N-]C(/C=N/O)NC(C)N1.[Br][Ni+2][Br] (stereo unspecified) = inactive

How did this test come out for C/C=C1\CN2CCC34c5ccccc5N5C(=O)CCC(C1CC23)C54 (stereo unspecified) ? inactive

Record lookup: outcome of this test for OCCN(CCO)c1ccc(O)cc1 ? inactive

Could you kindly confirm the outcome this assay logged for CS(=O)(=O)OCCCN(CCCOS(C)(=O)=O)CCCN1CCOCC1 ? active

* * *

System: CD2F1 mice, L1210 leukemia ip, survival T/C
Assay: NCI In Vivo Anticancer Drug Screen. Data for tumor model L1210 Leukemia (intraperitoneal) in CD2F1 (CDF1) mice
Details: endpoint: mean survival time; dose: 5.0 mg/kg/injection; schedule: Q01DX009 (ip); vehicle: saline with Tween-80; higher = longer survival
Toxic doses and inconclusive results are not listed.
READOUT_NAME: T/C

Take a look at these entries with their results.
CC(C)OC(=O)C12Oc3ccc(-c4ccc5c(c4O)C(O)=C4C(=O)CC(C)C(O)C4(C(=O)OC(C)C)O5)c(O)c3C(O)=C1C(=O)CC(C)C2O (stereo unspecified) = 98 % of control
CC(=O)c1cno[n+]1[O-] = 97 % of control
Cn1c(CC#N)c(C[N+](C)(C)C)c2ccccc21 = 97 % of control
C=C(Br)CNC(=O)C(C)C = 98 % of control
CC(=O)CC(C)=NCC(C)N=C(C)CC(C)=O.c1cc[c]([Sn][c]2ccccc2)cc1 (stereo unspecified) = 107 % of control

// moving on: another record for T/C
Hello, please tell me recorded T/C for this one: O=C1C=CC(=Nc2ccccc2)O1 102 % of control

* * *

Tested on: CD2F1 mice, L1210 leukemia ip, survival T/C
Experiment: NCI In Vivo Anticancer Drug Screen. Data for tumor model L1210 Leukemia (intraperitoneal) in CD2F1 (CDF1) mice
Conditions: endpoint: mean survival time; dose: 100.0 mg/kg/injection; schedule: Q01DX001 (ip); vehicle: saline with Tween-80; higher = longer survival
Experimental: The antitumor activity of compounds was measured in mice bearing transplantable tumors. Survival or tumor size were measured and the results are expressed as the measurement made in the treated group (T) divided by the measurement made in the vehicle treated control group (C). The tumor model used in this assay is L1210 Leukemia (intraperitoneal) in CD2F1 (CDF1) mice
Inconclusive results and toxic doses are left out.
READOUT_NAME: T/C

Look up T/C of O=Nc1c(O)sc2ccccc12 and report it. 110 % of control

Give a short answer stating reported T/C for Cn1nnc(-c2nn[nH]n2)n1 . 105 % of control

Tell me T/C reported for N#CCCOS(=O)(=O)c1ccc(N)c([N+](=O)[O-])c1 103 % of control

* * *

System: CD2F1 mice, L1210 leukemia ip, survival T/C
Assay: NCI In Vivo Anticancer Drug Screen. Data for tumor model L1210 Leukemia (intraperitoneal) in CD2F1 (CDF1) mice
Conditions: endpoint: mean survival time; dose: 50.0 mg/kg/injection; schedule: Q01DX005 (ip); vehicle: distilled water + Tween-80; higher = longer survival
Toxic doses and inconclusive results are not listed.
READOUT_NAME: T/C

OCC1OC(n2cnc3c(/C=C(/O)c4ccccc4)ncnc32)C(O)C1O (stereo unspecified) = 87 % of control

Input CCCCCC(=O)/C=C/Sc1n[nH]c(=O)[nH]c1=O , output reported T/C. 104 % of control

Tell me T/C reported for Nc1ncnc2c1ncn2C1OC(CO)C(=C(Br)Br)C1O (stereo unspecified) 101 % of control

For the compound Cc1cn(C2CC(O)C(CS[As](C)C)O2)c(=O)[nH]c1=O (stereo unspecified) , report T/C. 102 % of control

Answer with reported T/C of Cn1c(=O)c2c(ncn2C2C(=O)NNC2=O)n(C)c1=O 104 % of control

Provide only the value of recorded T/C for O=C(OCC1OC(n2cnc3cc(Cl)c(Cl)cc32)C(OC(=O)c2ccccc2)C1OC(=O)c1ccccc1)c1ccccc1 (stereo unspecified) 93 % of control
